# assay_system: T1, GPC3 endogenously expressed on HepG2 cells (UniProt P51654 25-554)
# T1 construct: whole, on cells
# experimental_details: FACS on HepG2 cells;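 note: flow cytometric binding of chimeric antibodies to cells, read as mean fluorescence intensity, EC50 obtained by curve fitting of the MFI data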
test_readout: Max MFI (MFI)
Please give a number only; it is taken to be in MFI.

binder	Max MFI / MFI
F2.55.11 human-murine chimeric antibody (antibody, human IgG1, kappa, V domains shown) VH: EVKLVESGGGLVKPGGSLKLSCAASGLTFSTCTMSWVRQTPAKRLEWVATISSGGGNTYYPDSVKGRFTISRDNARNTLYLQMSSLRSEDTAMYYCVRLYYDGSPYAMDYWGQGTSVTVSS VL: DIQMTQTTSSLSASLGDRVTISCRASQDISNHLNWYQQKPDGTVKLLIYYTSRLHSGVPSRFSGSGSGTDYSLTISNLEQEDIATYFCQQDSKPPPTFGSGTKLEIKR	1630

Attention now turns to another entry.
What the record says about F3.38.7 human-murine chimeric antibody (antibody, human IgG1, kappa, V domains shown) VH: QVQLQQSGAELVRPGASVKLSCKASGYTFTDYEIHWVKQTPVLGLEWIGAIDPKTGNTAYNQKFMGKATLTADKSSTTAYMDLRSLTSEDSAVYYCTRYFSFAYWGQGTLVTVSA VL: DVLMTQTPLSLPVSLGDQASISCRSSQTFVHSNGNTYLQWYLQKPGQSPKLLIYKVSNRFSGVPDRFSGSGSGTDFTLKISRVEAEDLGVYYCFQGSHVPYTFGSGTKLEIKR : Max MFI is 4980
